Data origin: patent US7030267B2

Recorded measurements of melting point, one per entry

[
  {
    "molecule": "CCC(CC)C1CC1(CN)C(=O)O (stereo not drawn)",
    "melting point": "255 to 257 °C"
  },
  {
    "molecule": "Cl.NCC1(C(=O)O)CC12CCCCC2 (stereo not drawn) [Example 1]",
    "melting point": "> 250 °C (dec.)"
  },
  {
    "molecule": "CC1(C)CC1(CN)C(=O)O (stereo not drawn)",
    "melting point": "254 to 256 °C"
  }
]
